Target: FGFR3 (V555M) (Homo sapiens, UniProt P22607, V555M)
Construct: made in house; host or cells: E. coli (BL21-derived) infected with T7 phage
Sequence (P22607 23-806 V555M): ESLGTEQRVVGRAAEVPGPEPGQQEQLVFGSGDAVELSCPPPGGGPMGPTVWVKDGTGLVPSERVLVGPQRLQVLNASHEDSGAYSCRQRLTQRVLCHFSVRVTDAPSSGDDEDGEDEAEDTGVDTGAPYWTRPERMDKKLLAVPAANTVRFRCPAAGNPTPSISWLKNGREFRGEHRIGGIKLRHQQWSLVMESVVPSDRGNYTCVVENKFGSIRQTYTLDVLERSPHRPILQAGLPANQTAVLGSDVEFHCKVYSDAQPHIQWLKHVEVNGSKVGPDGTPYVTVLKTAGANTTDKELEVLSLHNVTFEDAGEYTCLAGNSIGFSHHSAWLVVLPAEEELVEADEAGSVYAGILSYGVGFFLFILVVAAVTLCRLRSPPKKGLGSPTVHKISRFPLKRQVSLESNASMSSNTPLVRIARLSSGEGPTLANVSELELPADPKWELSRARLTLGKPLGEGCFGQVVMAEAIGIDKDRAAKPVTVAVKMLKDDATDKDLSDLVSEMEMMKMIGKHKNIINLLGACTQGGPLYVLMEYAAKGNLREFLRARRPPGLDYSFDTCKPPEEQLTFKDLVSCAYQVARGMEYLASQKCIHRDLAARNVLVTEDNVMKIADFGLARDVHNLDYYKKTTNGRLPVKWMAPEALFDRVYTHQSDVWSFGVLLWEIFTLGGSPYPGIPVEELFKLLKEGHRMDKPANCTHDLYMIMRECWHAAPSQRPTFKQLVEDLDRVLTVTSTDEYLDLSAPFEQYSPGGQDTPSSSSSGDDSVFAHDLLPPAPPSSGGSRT
Assay: Kinase binding assay (Kd), kinase-tagged T7 phage, affinity beads, qPCR
Conditions: in vitro binding assay, 11-point 3-fold dilution series
Reported Kd by item:

- compound: "C=CC(=O)N1CCC2(CC1)CC(n1cc(-c3cc(O[C@@H](CO)c4ccc(F)cn4)c4c(C#N)cnn4c3)cn1)C2 [Example 25]"
  measurement_label: "Kd"
  obs_value: "250 to 1000 nM"
- compound: "C=CC(=O)N1CC(F)(C(=O)N2CCC(n3nnc(-c4cc(O[C@H](CO)c5ccccn5)c5c(C#N)cnn5c4)c3C)CC2)C1 (single isomer, unassigned) [Example 20]"
  measurement_label: "Kd"
  obs_value: "0.1 to 100 nM"
- compound: "C=CC(=O)N1CC(F)(C(=O)N2CCC(n3nnc(-c4cc(O[C@@H](CO)c5ccccn5)c5c(C#N)cnn5c4)c3C)CC2)C1 (single isomer, unassigned) [Example 19]"
  measurement_label: "Kd"
  obs_value: "250 to 1000 nM"
- compound: "C=CC(=O)N1CCC2(CC1)CC(n1ncc(-c3cc(O[C@H](CO)c4ccc(F)cn4)c4c(C#N)cnn4c3)c1C)C2 [Example 9]"
  measurement_label: "Kd"
  obs_value: "0.1 to 100 nM"

Any idea what its Kd is? The compound is C=CC(=O)N1CCC2(CC1)CC(n1ncc(-c3cc(O[C@H](CO)c4ccccn4)c4c(C#N)cnn4c3)c1C)C2 [Example 8]
0.1 to 100 nM

Also, C=CC(=O)N1CC(OC)(C(=O)N2CCC(n3nnc(-c4cc(O[C@H](CO)c5ccccn5)c5c(C#N)cnn5c4)c3C)CC2)C1 [Example 22] please.
0.1 to 100 nM

Also, CCC(=O)N1CCC2(CC1)CC(n1cc(-c3cc(O[C@H](CO)c4ccc(F)cn4)c4c(C#N)cnn4c3)cn1)C2 [Example 28] please.
0.1 to 100 nM

Also, C=CC(=O)N1CCC2(CC1)CC(n1ncc(-c3cc(O[C@@H](CO)c4ccc(F)cn4)c4c(C#N)cnn4c3)c1C)C2 [Example 10] please.
250 to 1000 nM

Also, C=CC(=O)N1CCC(n2ncc(-c3cc(O[C@@H](CO)c4ccc(F)cn4)c4c(C#N)cnn4c3)c2C)CC1 [Example 2] please.
250 to 1000 nM

Also, C=CC(=O)N1CCC2(CC1)CC(n1ncc(-c3cc(OC(CO)c4ccn(C)n4)c4c(C#N)cnn4c3)c1C)C2 (stereo not shown) [Example 14] please.
100 to 250 nM

Also, C=CC(=O)N1CC(C(=O)N2CCC(n3nnc(-c4cc(O[C@@H](CO)c5ccccn5)c5c(C#N)cnn5c4)c3C)CC2)C1 [Example 17] please.
250 to 1000 nM

Also, CCC(=O)N1CCC2(CC1)CC(n1cc(-c3cc(O[C@@H](CO)c4ccc(F)cn4)c4c(C#N)cnn4c3)cn1)C2 [Example 26] please.
250 to 1000 nM

Also, CCC(=O)N1CC(C(=O)N2CCC(n3nnc(-c4cc(OC(CO)c5ccccn5)c5c(C#N)cnn5c4)c3C)CC2)C1 (stereo not shown) [Example 16] please.
0.1 to 100 nM

* * *

Reported IC50 by item:
Tested on: RT112/84
Assay: Cancer cell line cell viability assay (CellTiter-Glo 2.0)
Assay type: cell-based
Conditions: Homo sapiens; RT112/84 (FGFR3-fusion) cell viability, 72 hours

# annotated cases, reported IC50 shown
- compound: "C=CC(=O)N1CC(C(=O)N2CCC(n3nnc(-c4cc(O[C@H](CO)c5ccccn5)c5c(C#N)cnn5c4)c3C)CC2)C1 (single isomer, unassigned)"
  IC50: "≥ 1000 nM"
- compound: "C=CC(=O)N1CCC(n2ncc(-c3cc(O[C@@H](CO)c4ccc(F)cn4)c4c(C#N)cnn4c3)c2C)CC1"
  IC50: "≥ 1000 nM"
- compound: "C=CC(=O)N1CCC2(CC1)CC(n1nnc(-c3cc(O[C@H](C)c4ccccn4)c4c(C#N)cnn4c3)c1C)C2"
  IC50: "0.1 to 100 nM"

# next compound below
Given the entry C=CC(=O)N1CCC2(CC1)CC(n1ncc(-c3cc(O[C@H](CO)c4ccccn4)c4c(C#N)cnn4c3)c1C)C2 , what IC50 was observed with RT112/84?
100 to 250 nM
